System: BT-549
Assay Comment: NCI tumour cell line growth inhibition, 48 h
Active and inactive are the calls of the source. Rule as the data show it: active = GI50 up to about 1.1 µM and inactive = higher.
Exercise: state measured GI50 for each of the molecules provided.

So, CCN(CC)CC[n+]1ccc2c(C)c3[nH]c4ccc(O)cc4c3c(C)c2c1 ? Its GI50 was 12.7 µM (inactive)

So, Cc1c2ccncc2c(C)c2c1sc1ccccc12 ? Its GI50 was 16.7 µM (inactive)

So, O=S(=O)(O)n1ccnc1 ? Its GI50 was > 100 µM (inactive)

So, C=CCOC(=O)C1=C(C)N=C2N[C@H](CCCCCCCCC)C[C@@H]3CCC1N23 (stereo partly specified) ? Its GI50 was 19.9 µM (inactive)

So, S=c1[nH]c2c(Cl)c(Cl)c(Cl)c(Cl)c2[nH]1 ? Its GI50 was 17.9 µM (inactive)

So, CN(C)Cc1cc(C(=O)/C=C/c2ccc(Cl)cc2)cc(CN(C)C)c1O ? Its GI50 was 3.7 µM (inactive)

---

Exercise: state measured GI50 for each of the compounds provided.

Cc1ccc(S(=O)(=O)NC(=O)NCCc2ccc(O)c(O)c2)cc1 on HCT-15 gives GI50 = > 100 µM

COC(=O)c1cc(-c2cccn2C)c2c(c1C(=O)OC)c1ccccc1n2C on HCT-15 gives GI50 = 22.4 µM

CC1(C)C2CCC1C(=O)C(C=O)C2 (stereo not drawn) on HCT-15 gives GI50 = 49.5 µM

C[C@@H]1OCC(O)C([C@H]2OC(c3ccccc3)=N[C@H]2CO)O1 (stereo partly drawn) on HCT-15 gives GI50 = > 100 µM

CC(C)(C)OC(=O)N1CCc2[nH][nH]c(=O)c2C1 on HCT-15 gives GI50 = > 100 µM

CCOC(=O)CCC1(C(=O)O[C@@H]2C[C@H](C)CC[C@H]2C(C)C)CCCCC1=O (stereo partly drawn) on HCT-15 gives GI50 = 41.7 µM

NCCCN1CCN(CCCNc2ccc3nnn4c5ccccc5c(=O)c2c34)CC1 on HCT-15 gives GI50 = 20.7 µM

Cc1[nH]c2ccccc2c1C(=O)CC1(O)C(=O)Nc2ccccc21 (stereo not drawn) on HCT-15 gives GI50 = > 100 µM

COc1ccc(-n2sc3ncccc3c2=O)cc1 on HCT-15 gives GI50 = 22.6 µM

CCCCc1ccc(NC(=N)N)cc1 on HCT-15 gives GI50 = 33 µM

COc1cc([C@H]2c3[nH]c4ccccc4c3C[C@H]3COC(=O)N32)cc(OC)c1O on HCT-15 gives GI50 = 0.0256 µM

O=C(OC[C@H]1C[C@H]2C(=O)CCC[C@H]2O1)c1ccccc1 on HCT-15 gives GI50 = > 100 µM

CCCC(=O)NC1=C(Cl)C(=O)c2ccccc2C1=O on HCT-15 gives GI50 = 1.68 µM

CC(C)=CCC/C(C)=C\CC/C(C)=C/CO on HCT-15 gives GI50 = 40.1 µM

Cc1nc2c3c(ccc2nc1O)C(=O)c1ccccc1C3=O on HCT-15 gives GI50 = 48 µM

COC(=O)CC1(O)C=CC(=O)C=C1 on HCT-15 gives GI50 = 3.01 µM

COc1cccc(/C=N/n2c(C)n[nH]c2=O)c1 on HCT-15 gives GI50 = > 100 µM

COc1ccc(/C(Cl)=C(\C=O)c2ccc(F)cc2)cc1OC on HCT-15 gives GI50 = 12.8 µM

N#C/C(=C\c1cccc(Cl)c1Cl)c1ccccc1 on HCT-15 gives GI50 = > 57.4 µM

CC(=O)/C=C1\CC(=O)Nc2ccccc2N1 on HCT-15 gives GI50 = > 100 µM

COC(=O)c1c[nH]c(=O)[nH]c1=O on HCT-15 gives GI50 = > 100 µM

NC1=NN(c2ccccc2)C(=O)C1/C(=N\NC(=O)c1cc2ccccc2cc1O)C(=O)Nc1nc([N+](=O)[O-])cs1 (stereo not drawn) on HCT-15 gives GI50 = 24.3 µM

CCOC(=O)[C@H]1C[C@@H](C(=O)c2ccccc2)N2N=C(c3ccc(Br)cc3)C=C[C@H]12 on HCT-15 gives GI50 = > 100 µM

---

Exercise: state measured GI50 for each of the molecules provided.
Test system: SR
Assay Comment: NCI tumour cell line growth inhibition, 48 h
Active and inactive are the calls of the source. No stated cut-off is given here; in the data, active = GI50 up to about 1.1 µM and inactive = higher.

So, CCOC(=O)c1nc2c(Cl)c3ncccc3cc2[nH]c1=O ? Its GI50 was 8.73 µM (inactive)

So, COc1ccc(OC)c2c(=O)c3ccccc3[nH]c12 ? Its GI50 was 41.1 µM (inactive)

So, O=C(CC1(O)C(=O)Nc2c(Cl)cc(Cl)cc21)c1ccc(Br)cc1 (stereo not drawn) ? Its GI50 was 19.8 µM (inactive)

So, COc1ccc(N2C(=O)C3c4[nH]c5cccc(Cl)c5c4C4CCC(C(C)(C)C)CC4C3C2=O)cc1 (stereo not drawn) ? Its GI50 was 8.47 µM (inactive)

So, CN1C(=O)[C@@H]2N(CSC2(C)C)C1=S ? Its GI50 was > 100 µM (inactive)

So, CCOC(=O)C(NC(=O)c1ccccc1)(c1ccc(S(=O)(=O)Nc2onc(C)c2C)cc1)C(F)(F)F (stereo not drawn) ? Its GI50 was > 100 µM (inactive)

So, S=C(/N=C1/NCC(CN2CCN(c3ccccc3)CC2)O1)Nc1ccccc1 (stereo not drawn) ? Its GI50 was 34.6 µM (inactive)

So, CC[C@H](C)[C@H]1NC(=O)[C@@H](NC(=O)[C@@H](CC(C)C)N(C)C(=O)C2CCCN2C(=O)[C@H](C)O)[C@@H](C)OC(=O)[C@H](Cc2ccc(OC)cc2)N(C)C(=O)[C@@H]2CCCN2C(=O)[C@H](CCCCNC(=O)OCc2ccccc2)NC(=O)[C@H](C)C(=O)[C@H](C(C)C)OC(=O)C[C@@H]1O (stereo partly drawn) ? Its GI50 was 12.2 µM (inactive)

---

Exercise: state measured GI50 for each of the compounds provided.
System: UACC-257
Assay Comment: NCI tumour cell line growth inhibition, 48 h
Calls of active or inactive are those of the source. Cut-off read from the data, not from the text of the source: active = GI50 up to about 1.1 µM and inactive = higher.

So, CCOC(=O)[C@H]1C[C@@H](C(=O)c2ccccc2)N2N=C(c3ccc(Br)cc3)C=C[C@H]12 ? Its GI50 was > 100 µM (inactive)

So, CC(C)(C)OC(=O)N1CCc2[nH][nH]c(=O)c2C1 ? Its GI50 was > 100 µM (inactive)

So, COc1cc2c(cc1OC)C(C(CO)CO)N(CC(O)CCl)CC2 (stereo not given) ? Its GI50 was > 100 µM (inactive)

So, N#Cc1c(OCCF)c2ccccc2n2c1nc1ccccc12 ? Its GI50 was 93.3 µM (inactive)

So, CC1=CC(=O)N(n2c(-c3ccccc3)n[nH]c2=O)C1=O ? Its GI50 was > 100 µM (inactive)

So, COc1ccc(OC2OC(CO)C(O)C(O)C2O)cc1 (stereo not given) ? Its GI50 was > 100 µM (inactive)

So, COC(=O)c1cc(-c2cccn2C)c2c(c1C(=O)OC)c1ccccc1n2C ? Its GI50 was 82 µM (inactive)

So, Cc1cc(OC2OC(CO)C(O)C(O)C2O)ccc1O (stereo not given) ? Its GI50 was > 100 µM (inactive)

So, CC(C)N(C(=O)C12C3C4C5C3C1(C(=O)N(C(C)C)C(C)C)C5C42)C(C)C (stereo not given) ? Its GI50 was > 100 µM (inactive)

So, CC(=O)OCC(OC(C)=O)C(OC(C)=O)C(OC(C)=O)C(=O)CNn1c(-c2ccccc2Cl)nc2ccccc2c1=O (stereo not given) ? Its GI50 was > 100 µM (inactive)

---

Test system: SF-539
Assay Comment: NCI tumour cell line growth inhibition, 48 h
The source made the active and inactive calls. No stated cut-off is given here; in the data, active = GI50 up to about 1.1 µM and inactive = higher.
Exercise: state measured GI50 for each of the compounds provided.

So, Cc1cc(OC2OC(CO)C(O)C(O)C2O)ccc1O (stereo not given) ? Its GI50 was > 100 µM (inactive)

So, CCCc1cc(OC(=O)c2c(O)cc(OC)cc2CCC)cc(O)c1C(=O)O ? Its GI50 was 18 µM (inactive)

So, CC1=CC(=O)N(n2c(-c3ccccc3)n[nH]c2=O)C1=O ? Its GI50 was > 100 µM (inactive)

So, CN(C)CCCNC(=O)CNC(=O)c1cc(NC(=O)c2cc(NC(=O)c3cc(NC(=O)CCNC(=O)c4cc(NC(=O)c5cc(NC(=O)c6nccn6C)cn5C)cn4C)cn3C)cn2C)cn1C ? Its GI50 was > 100 µM (inactive)

So, CC1(C)C2CCC1C(=O)C(C=O)C2 (stereo not given) ? Its GI50 was 74.5 µM (inactive)

---

Exercise: state measured GI50 for each of the compounds provided.
Test system: OVCAR-3
Assay Comment: NCI tumour cell line growth inhibition, 48 h
The source made the active and inactive calls. Cut-off read from the data, not from the text of the source: active = GI50 up to about 1.1 µM and inactive = higher.

So, N#CN=C(NCCO)NCCO ? Its GI50 was > 100 µM (inactive)

So, COc1ccc(-c2cc3cc(Cl)cc(Cl)c3oc2=O)cc1OC ? Its GI50 was 29.4 µM (inactive)

So, Nn1c(-c2cccc(Cl)c2)nc2ccccc2c1=O ? Its GI50 was > 100 µM (inactive)

So, Cc1ccc2c(c1)CNc1ccc(C)cc1CN2 ? Its GI50 was > 100 µM (inactive)

So, O=C1C(N2CCN(c3ccccn3)CC2)=C(Cl)C(=O)c2ncccc21 ? Its GI50 was 1.89 µM (inactive)

So, C=C1CCCC(C)(C)[C@H]1C/C=C1\CCOC1=O ? Its GI50 was 15 µM (inactive)

So, NC(Cc1ccccc1)C(=O)OCN1C(=O)C2C3C=CC(C2C1=O)C1C(=O)N(COC(=O)C(N)Cc2ccccc2)C(=O)C31 (configuration not stated) ? Its GI50 was > 100 µM (inactive)

So, COc1ccc(-n2sc3ncccc3c2=O)cc1 ? Its GI50 was 23 µM (inactive)

So, OCCCCCCCCCCCOc1ccc(C2OCC3(CO2)COC(c2ccc(OCCCCCCCCCCCO)cc2)OC3)cc1 (configuration not stated) ? Its GI50 was > 50 µM (inactive)

So, COC(=O)CCC(C)[C@H]1CCC2C3C(C[C@H](OC(C)=O)[C@@]21C)[C@@]1(C)CCC2(C[C@H]1C[C@H]3OC(C)=O)OOC1(CCCCCCC1)OO2 (some centres not stated) ? Its GI50 was 2.73 µM (inactive)

So, COc1ccc2c(c1)Oc1cc(O)ccc1[C@H]2c1ccccc1C(=O)NC(C)c1ccccc1 (some centres not stated) ? Its GI50 was 12.3 µM (inactive)

So, CCOC(=O)c1nc2ccc(C(F)(F)F)cc2nc1NCc1cc(OC)c(OC)c(OC)c1 ? Its GI50 was 55.5 µM (inactive)

So, CC1=C2C(=O)c3ccccc3C(=O)[C@H]2C[C@@H](N2CCCCCC2=O)O1 ? Its GI50 was 18 µM (inactive)

So, Cc1nc2c(n1CCO)C(=O)c1ccccc1C2=O ? Its GI50 was 24.3 µM (inactive)

So, COC(=O)c1c[nH]c(=O)[nH]c1=O ? Its GI50 was > 100 µM (inactive)

So, Cc1ccc(S(=O)(=O)NC2C(=O)c3ccccc3C(=O)C2n2ccnc2)cc1 (configuration not stated) ? Its GI50 was 42.5 µM (inactive)

So, CC1CC2C(=O)NC(=O)C2c2[nH]c3ccccc3c21 (configuration not stated) ? Its GI50 was 96.2 µM (inactive)

Origin of the recorded values: ChEMBL document CHEMBL1201862
